target: acetylcholinesterase (AChE) (Homo sapiens, UniProt P22303)
Sequence (P22303 32-614, species assumed): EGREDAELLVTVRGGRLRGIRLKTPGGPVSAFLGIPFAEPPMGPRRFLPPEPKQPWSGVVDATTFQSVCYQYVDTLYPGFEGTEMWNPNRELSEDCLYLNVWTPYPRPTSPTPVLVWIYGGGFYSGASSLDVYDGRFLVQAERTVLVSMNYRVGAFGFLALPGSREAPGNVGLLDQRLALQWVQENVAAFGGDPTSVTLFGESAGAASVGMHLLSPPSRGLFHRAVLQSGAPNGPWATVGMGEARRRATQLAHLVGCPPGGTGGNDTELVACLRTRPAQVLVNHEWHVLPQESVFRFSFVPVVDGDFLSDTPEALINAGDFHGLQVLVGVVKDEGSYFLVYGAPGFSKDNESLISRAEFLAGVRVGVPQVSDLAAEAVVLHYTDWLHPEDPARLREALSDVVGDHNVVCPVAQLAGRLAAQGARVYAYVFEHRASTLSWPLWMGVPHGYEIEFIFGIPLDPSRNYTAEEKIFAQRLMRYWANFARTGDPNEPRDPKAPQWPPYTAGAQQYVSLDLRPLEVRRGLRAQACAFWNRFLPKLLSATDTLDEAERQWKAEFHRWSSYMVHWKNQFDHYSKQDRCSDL
pIC50: −log10 of the molar value.
Item-by-item account of pIC50

- Compound: "O=C(NCc1ccccn1)c1ccnc(-c2cc(C(=O)NCc3ccccn3)ccn2)c1 [L1]"
  pIC50: 3.76
- Compound: "O=C(NCC1CCCCN1)c1ccnc(-c2cc(C(=O)NCC3CCCCN3)ccn2)c1 (centres unmarked) [L2]"
  pIC50: 4.99

###

target: butyrylcholinesterase (BChE) (Homo sapiens, UniProt P06276)
Sequence (P06276 29-602, species assumed): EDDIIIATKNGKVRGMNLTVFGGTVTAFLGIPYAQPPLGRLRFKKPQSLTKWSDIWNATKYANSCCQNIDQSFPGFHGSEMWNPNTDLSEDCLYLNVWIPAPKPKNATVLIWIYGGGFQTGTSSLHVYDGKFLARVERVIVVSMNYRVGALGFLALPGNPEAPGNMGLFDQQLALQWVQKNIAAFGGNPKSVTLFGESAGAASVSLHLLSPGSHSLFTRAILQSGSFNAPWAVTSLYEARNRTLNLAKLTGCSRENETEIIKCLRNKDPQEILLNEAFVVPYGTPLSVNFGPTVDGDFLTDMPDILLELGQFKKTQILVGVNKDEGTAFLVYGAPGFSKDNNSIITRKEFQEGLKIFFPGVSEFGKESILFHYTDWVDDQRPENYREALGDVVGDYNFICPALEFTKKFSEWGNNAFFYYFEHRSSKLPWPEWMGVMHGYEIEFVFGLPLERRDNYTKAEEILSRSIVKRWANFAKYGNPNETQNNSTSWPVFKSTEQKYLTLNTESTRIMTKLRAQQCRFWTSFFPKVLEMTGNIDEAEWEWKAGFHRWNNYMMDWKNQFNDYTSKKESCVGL

- Compound: "O=C(NCc1ccccn1)c1ccnc(-c2cc(C(=O)NCc3ccccn3)ccn2)c1 [L1]"
  IC50: "68.1 µM"
- Compound: "O=C(NCC1CCCCN1)c1ccnc(-c2cc(C(=O)NCC3CCCCN3)ccn2)c1 (centres unmarked) [L2]"
  IC50: "8.83 µM"

###

molecular target: pancreatic lipase (Homo sapiens)
Sequence (P16233 17-465, species assumed): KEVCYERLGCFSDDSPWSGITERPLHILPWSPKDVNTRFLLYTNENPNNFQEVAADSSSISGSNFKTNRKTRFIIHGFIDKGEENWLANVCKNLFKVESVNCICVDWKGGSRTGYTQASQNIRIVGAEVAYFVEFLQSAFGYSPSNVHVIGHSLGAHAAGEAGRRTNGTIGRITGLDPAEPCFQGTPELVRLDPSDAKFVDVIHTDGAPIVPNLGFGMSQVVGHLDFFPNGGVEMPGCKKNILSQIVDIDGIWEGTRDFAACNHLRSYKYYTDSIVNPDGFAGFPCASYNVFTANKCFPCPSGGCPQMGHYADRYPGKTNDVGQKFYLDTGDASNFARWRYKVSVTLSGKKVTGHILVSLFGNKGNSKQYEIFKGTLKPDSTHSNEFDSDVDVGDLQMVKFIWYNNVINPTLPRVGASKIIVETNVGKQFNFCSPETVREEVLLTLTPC
pIC50: −log10 of the molar value.
Measured Property: pIC50

- Molecule: "O=C(NCC1CCCCN1)c1ccnc(-c2cc(C(=O)NCC3CCCCN3)ccn2)c1 (stereo not shown)"
  Value: 4.62
